biological target: CYP1A2 (Homo sapiens, UniProt P05177); construct: human liver microsomes (0.25 mg/mL); from tissue; host or cells: human liver microsomes; assay: Inhibitory effect on CYP coenzyme activity, human liver microsomes; assay type: in vitro ADME; conditions: compound 10 μM; human liver microsomes 0.25 mg/mL; substrate phenacetin; 15 minutes
Sequence (P05177 whole entry): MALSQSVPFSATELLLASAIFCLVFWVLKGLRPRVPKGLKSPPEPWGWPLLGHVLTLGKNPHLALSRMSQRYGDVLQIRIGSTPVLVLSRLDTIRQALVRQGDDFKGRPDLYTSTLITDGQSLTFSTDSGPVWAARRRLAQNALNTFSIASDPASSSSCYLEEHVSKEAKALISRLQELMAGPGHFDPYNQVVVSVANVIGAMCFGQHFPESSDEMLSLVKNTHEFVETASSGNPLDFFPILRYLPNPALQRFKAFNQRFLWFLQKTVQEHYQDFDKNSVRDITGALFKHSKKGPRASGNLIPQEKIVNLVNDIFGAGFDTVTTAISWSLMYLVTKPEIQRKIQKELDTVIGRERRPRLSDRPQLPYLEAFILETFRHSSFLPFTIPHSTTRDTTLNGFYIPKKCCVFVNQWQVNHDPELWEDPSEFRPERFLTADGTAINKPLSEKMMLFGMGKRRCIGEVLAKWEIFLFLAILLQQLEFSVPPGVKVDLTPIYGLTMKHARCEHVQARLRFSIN
Cut-off 80 on CYP1A2, inclusive. At or above means Criterion met; below means Criterion not met.

Textbook exercise: given the entry "Cc1cc(NN=C(C#N)C#N)ccc1OCc1cc[nH]n1" , state whether its CYP1A2 is greater than or equal to 80. Criterion not met

Textbook exercise: given the entry "N#CC(C#N)=NNc1ccc(NC(=O)c2ccc(F)cc2)nc1" , state whether its CYP1A2 is greater than or equal to 80. Criterion not met

Textbook exercise: given the entry "Cc1cnc(C(=O)Nc2ccc(NN=C(C#N)C#N)c(F)c2)cn1" , state whether its CYP1A2 is greater than or equal to 80. Criterion met

Textbook exercise: given the entry "N#CC(C#N)=NNc1ccc(NC(=O)c2cccs2)nc1" , state whether its CYP1A2 is greater than or equal to 80. Criterion met

Textbook exercise: given the entry "COc1cc(NN=C(C#N)C#N)ccc1OCc1cccnc1" , state whether its CYP1A2 is greater than or equal to 80. Criterion not met

Textbook exercise: given the entry "Cc1cc(NN=C(C#N)C#N)ccc1OCc1cccnc1" , state whether its CYP1A2 is greater than or equal to 80. Criterion not met

Textbook exercise: given the entry "Cc1cnc(C(=O)Nc2ccc(NN=C(C#N)C#N)c(C)c2)cn1" , state whether its CYP1A2 is greater than or equal to 80. Criterion met

Textbook exercise: given the entry "Cc1cc(F)cc(C(=O)Nc2ccc(NN=C(C#N)C#N)cn2)c1" , state whether its CYP1A2 is greater than or equal to 80. Criterion not met

Textbook exercise: given the entry "Cc1ccc(NC(=O)c2ccc(NN=C(C#N)C#N)cn2)cn1" , state whether its CYP1A2 is greater than or equal to 80. Criterion met

All figures here come from patent US12649723B2.
